Reference source for all entries: patent US10485235B2

# System: ducksalad (Heteranthera limosa)
# assay: Test B flooded paddy test, ducksalad
# Format: in vivo
# measurement_context: Heteranthera limosa; 250 g ai/ha, Flood; visual rating after 13 to 15 days; scale 0 to 100, 0 is no effect, 100 is complete control; read-out: Plant response rating, Ducksalad
One threshold, 60%, splits the recorded pest or weed control at 250 g/ha values: lower ones are satisfied, equal or higher ones are not satisfied.

Below, 5 molecules whose answers are already recorded.
smiles_string	label_value
N#Cc1cccc(Oc2ncc(Cl)cn2)c1OC/C=C/C(F)(F)F	not satisfied
FC(F)(F)COc1c(I)cccc1Oc1ncc(Cl)cn1	not satisfied
Cc1cccc(Oc2ncc(Cl)cn2)c1OCC(F)(F)F	not satisfied
CCCCOc1c(C#N)cccc1Oc1ncc(Cl)cn1	not satisfied
FC(F)(F)COc1c(Cl)cccc1Oc1ncc(Cl)cn1	not satisfied

Next:
Exam item: # TODO verify pest or weed control at 250 g/ha < 60% strictly for this molecule: N#Cc1cccc(Oc2ncc(Cl)cn2)c1OCCCC(F)(F)F
Marked response: not satisfied
